Consider the following compounds; for each one, report its AOI in squalene at 80° C. with 0.005% test substance.
assay-overview: Accelerated autoxidation of lipids by air, Rancimat apparatus, squalene
test-conditions: antioxidative index = IP(with test solution)/IP(control sample), squalene purified over alumina grade N, stabilized with 1 ppm α-tocopherol
Give bare numbers.

Check out these entries, answers already filled in.
compound="COC(=O)NCc1ccc(O)c(O)c1 [Example 1, N-(3,4-Dihydroxybenzyl)-O-methylurethane]" reported_value=34
compound="CC(C)[C@@H]1CC[C@@H](C)C[C@H]1OC(=O)NCc1ccc(O)c(O)c1 [Example 2]" reported_value=48
compound="O=C1O[C@H]([C@@H](O)CO)C(O)=C1O [Vitamin C, reference compound]" reported_value=0.7
compound="CCCCC(CC)COC(=O)NCc1ccc(O)c(O)c1 (centres unmarked) [Example 4]" reported_value=45
compound="CCCCCCNC(=S)NCc1ccc(O)c(O)c1 [Example 5, N-(3,4-Dihydroxybenzyl)-N′-hexylthiourea]" reported_value=62

I would be grateful if you could provide AOI in squalene at 80° C. with 0.005% test substance for each of the following entries.
1. Cc1cc(C(C)(C)C)c(O)c(C(C)(C)C)c1 [3,5-Di-tert-butyl-4-hydroxytoluene, reference compound]
2. CCCCCCOC(=O)NCc1ccc(O)c(O)c1 [Example 3, N-(3,4-Dihydroxybenzyl)-O-hexylurethane]
3. Cc1c(C)c2c(c(C)c1O)CC[C@@](C)(CCC[C@H](C)CCC[C@H](C)CCCC(C)C)O2 [α-Tocopherol, reference compound]

RESULT:
1: 38; 2: 49; 3: 39

Ref: patent US20030139470A1
